In this section, each of the compounds is paired with its reported GI50.
System: LOX IMVI
procedureDetails: NCI tumour cell line growth inhibition, 48 h
The source made the active and inactive calls. No stated cut-off is given here; in the data, active = GI50 up to about 1.1 µM and inactive = higher.
measuredEndpoint: GI50

[
  {
    "compound": "CC(=O)NC1C(OCc2ccccc2)OC(COC(=O)CCCCCNc2ccc([N+](=O)[O-])c3[nH]c4ccc(O)cc4c(=O)c23)C(O)C1OC(C)C(=O)N[C@@H](C)C(=O)N[C@H](CCC(=O)OCc1ccccc1)C(N)=O (some centres undefined)",
    "result": "2.39 µM (inactive)"
  },
  {
    "compound": "Cc1c(C(=O)/C=C/c2ccc(N(C)C)cc2)c(=O)n(-c2ccccc2)n1C",
    "result": "> 100 µM (inactive)"
  },
  {
    "compound": "O=[N+]([O-])c1cccc([N+](=O)[O-])c1S(=O)(=O)c1ccccc1",
    "result": "1.84 µM (inactive)"
  },
  {
    "compound": "CC(C)(CO)CNc1cc(=O)[nH]c(N)n1",
    "result": "> 100 µM (inactive)"
  }
]

###

Test system: UACC-62
procedureDetails: NCI tumour cell line growth inhibition, 48 h
Active and inactive are the calls of the source. Rule as the data show it: active = GI50 up to about 1.1 µM and inactive = higher.
Outcomes: active, inactive

[
  {
    "molecule": "O=C(O)c1ccc(C2=Cc3cc(Cl)ccc3OC2)cc1",
    "categoryLabel": "inactive"
  },
  {
    "molecule": "O=C(Nc1cc(Cl)ccc1Cl)C(=O)C(c1cnc2ccccc2n1)[N+](=O)[O-] (stereo not drawn)",
    "categoryLabel": "inactive"
  },
  {
    "molecule": "O=c1c2cc(S(=O)(=O)Nc3ccccc3Cl)ccc2ncn1NS(=O)(=O)c1ccc(Br)cc1",
    "categoryLabel": "inactive"
  },
  {
    "molecule": "Cn1c(=O)c2nc(Nc3ccccc3)[nH]c2n(C)c1=O",
    "categoryLabel": "inactive"
  },
  {
    "molecule": "CCN(CC)CCCC(C)Nc1ccnc(/C=C/c2ccc(Cl)cc2)c1 (stereo not drawn)",
    "categoryLabel": "inactive"
  },
  {
    "molecule": "COC(=O)/C=C\\C(C#N)(C#N)/N=C/c1ccc(C)s1",
    "categoryLabel": "inactive"
  },
  {
    "molecule": "CSc1nc(SC)c2c(CO)c(Br)n(Cc3ccccc3)c2n1",
    "categoryLabel": "inactive"
  },
  {
    "molecule": "C=CCNC1=NC(=O)C(CC(=O)Nc2ccc([N+](=O)[O-])cc2[N+](=O)[O-])S1 (stereo not drawn)",
    "categoryLabel": "inactive"
  },
  {
    "molecule": "Cc1c2c(n(CC(c3ccccc3)c3ccccc3)c1C)NN=C(C#N)S2(=O)=O",
    "categoryLabel": "inactive"
  },
  {
    "molecule": "Nc1cc(-c2ccccc2)nn1-c1nsc2ccccc12",
    "categoryLabel": "inactive"
  },
  {
    "molecule": "Cc1ccc(C(=O)N/N=C(\\N=N\\c2ccccc2)c2ccc(N(C)C)cc2)cc1",
    "categoryLabel": "inactive"
  },
  {
    "molecule": "COc1nc(=O)n(C2CC(N=[N+]=[N-])C(CO)O2)cc1C (stereo not drawn)",
    "categoryLabel": "inactive"
  },
  {
    "molecule": "CCOC(=O)c1c(N2CCOCC2)ncn(-c2cccc(Cl)c2)c1=O",
    "categoryLabel": "inactive"
  },
  {
    "molecule": "CNC(=S)NNC(=O)c1c(C)nc2sccn12",
    "categoryLabel": "inactive"
  },
  {
    "molecule": "CC1(CF)SCc2nc3ccccc3n21 (stereo not drawn)",
    "categoryLabel": "inactive"
  },
  {
    "molecule": "CCOc1ccccc1/C=C1\\NC(=O)N(/C=C2\\C(=O)Oc3ccccc3C2=O)C1=O",
    "categoryLabel": "inactive"
  },
  {
    "molecule": "COc1ccc(CNc2cnc3cc(N)ccc3n2)cc1",
    "categoryLabel": "inactive"
  },
  {
    "molecule": "COC(=O)C(C(=O)C(=O)Nc1cccc(C)c1)C1=NC(N)SS1 (stereo not drawn)",
    "categoryLabel": "inactive"
  },
  {
    "molecule": "CC(C)(C)OC(=O)N1N=NC2C3OC(CC3=O)C21 (stereo not drawn)",
    "categoryLabel": "inactive"
  },
  {
    "molecule": "OCCCNCc1ccccn1",
    "categoryLabel": "inactive"
  },
  {
    "molecule": "O=c1c(C(c2ccc(C(c3c(O)oc4cc(O)ccc4c3=O)c3c(O)oc4cc(O)ccc4c3=O)cc2)c2c(O)oc3cc(O)ccc3c2=O)c(O)oc2cc(O)ccc12",
    "categoryLabel": "inactive"
  },
  {
    "molecule": "COC(=O)C(O)P(=O)(OC)OC (stereo not drawn)",
    "categoryLabel": "inactive"
  },
  {
    "molecule": "COC(=O)[C@@]12C3=NO[C@]1(C(=O)OC)C(O[Si](C)(C)C(C)(C)C)[C@H]1OC(C)(C)O[C@H]1[C@@H]2C(OCc1ccccc1)CC3 (stereo partly drawn)",
    "categoryLabel": "inactive"
  },
  {
    "molecule": "CC(=O)C(=[N+]=[N-])C(=O)N1CCOC1=O",
    "categoryLabel": "inactive"
  },
  {
    "molecule": "c1ccc(C2=NOC3(c4ccccc4)SC4CCCCC4CN23)cc1 (stereo not drawn)",
    "categoryLabel": "inactive"
  },
  {
    "molecule": "O=C(c1ccccc1)C1CCCCN1C(=O)c1ccccc1 (stereo not drawn)",
    "categoryLabel": "inactive"
  },
  {
    "molecule": "CNC(=O)CN1CC(=O)N(C)C(=O)C1",
    "categoryLabel": "inactive"
  },
  {
    "molecule": "Cc1nc(Nc2ccc(Cl)cc2)sc1C(=O)NNC(=O)C(=O)NN",
    "categoryLabel": "inactive"
  },
  {
    "molecule": "O=C1C(Cl)=CC2(C=C1Cl)CCNC1=C2C(=O)c2nc[nH]c2C1=O",
    "categoryLabel": "inactive"
  },
  {
    "molecule": "O=C(Nc1ccc(Cl)cc1Cl)c1cc2nc3ccccc3c(=O)n2c2ccccc12",
    "categoryLabel": "inactive"
  },
  {
    "molecule": "Clc1ccc(C2=CC(c3ccccc3)N3C(=N[C@H]4CCCC[C@@H]43)N2)cc1 (stereo partly drawn)",
    "categoryLabel": "inactive"
  },
  {
    "molecule": "CCOC(=O)c1sc2nc(SC)nc(Nc3ccc4c(c3)OCCO4)c2c1N",
    "categoryLabel": "inactive"
  },
  {
    "molecule": "CC1(C)OC2[C@@H](CO[C@@]3([C@H]4OC(C)(C)O[C@@H]4CO)OC(C)(C)O[C@@H]23)O1 (stereo partly drawn)",
    "categoryLabel": "inactive"
  },
  {
    "molecule": "O=[N+]([O-])c1ccc2nc(/C(=N\\Nc3ccccc3)C(O)c3ccc4c(c3)OCO4)c(O)nc2c1 (stereo not drawn)",
    "categoryLabel": "inactive"
  },
  {
    "molecule": "CN(C)c1nc2oc(-c3ccccc3)c(-c3ccccc3)c2c2nncn12",
    "categoryLabel": "inactive"
  },
  {
    "molecule": "O=c1c(Nc2ccccc2)cn(CCOc2ccccc2)c(=O)n1CCOc1ccccc1",
    "categoryLabel": "inactive"
  },
  {
    "molecule": "O=C1C=C2SC3C[C@@]24CC1[N+]1=c2c4c(c(O)c4c2=C(C=N4)CC1)N3",
    "categoryLabel": "inactive"
  },
  {
    "molecule": "Cn1cc(C2NC(=O)c3ccccc3N2)c2ccccc21 (stereo not drawn)",
    "categoryLabel": "active"
  },
  {
    "molecule": "CCCCCCCCCCCCNC(C)=O",
    "categoryLabel": "inactive"
  },
  {
    "molecule": "Cc1cnc2c(c1)C(=O)C1=C(OC(C)(C)CC1O)C2=O (stereo not drawn)",
    "categoryLabel": "inactive"
  },
  {
    "molecule": "Nc1ccc2nc3ccc(=O)cc-3n(-c3ccccc3)c2c1",
    "categoryLabel": "inactive"
  },
  {
    "molecule": "O=S(=O)(O)c1ccc(/N=N/c2ccc(/N=N/c3c(O)ccc4cc(S(=O)(=O)O)ccc34)cc2)cc1",
    "categoryLabel": "inactive"
  },
  {
    "molecule": "O=C1Nc2nnc(S)n2NC12c1ccccc1-c1ccccc12",
    "categoryLabel": "inactive"
  }
]

###

Test system: U-251
procedureDetails: NCI tumour cell line growth inhibition, 48 h
Active and inactive are the calls of the source. Cut-off read from the data, not from the text of the source: active = GI50 up to about 1.1 µM and inactive = higher. Square brackets hold non-standard residues; d marks the D form. Peptide text beside a SMILES is read from it. * marks the point of attachment. X26 = COC1=CC(=O)N(C(=O)[C@@H](O*)C(C)C)[C@H]1Cc1ccccc1; NMeL = CN[C@@H](CC(C)C)C(=O)O; Hexanoyl = CCCCCC(=O)*
Outcomes: Y for active, N for inactive

[
  {
    "molecule": "NC(=S)NS(=O)(=O)c1ccc(F)cc1F",
    "categoryLabel": "N"
  },
  {
    "molecule": "CCCCCCCCCCCCCC(=O)NO",
    "categoryLabel": "N"
  },
  {
    "molecule": "OC[C@]1(n2nc3ccccc3n2)OC[C@@H]1c1ccccc1",
    "categoryLabel": "N"
  },
  {
    "molecule": "CC(C)CCS(=O)(=O)OCCCCOS(=O)(=O)CCC(C)C",
    "categoryLabel": "N"
  },
  {
    "molecule": "OC(Cc1cccnc1)(c1ccccc1)c1ccccc1",
    "categoryLabel": "N"
  },
  {
    "molecule": "CCCCCC(=O)N[C@H](C(=O)N[C@H](C(=O)N(C)[C@@H](CC(C)C)C(=O)N1CCC[C@H]1C(=O)N1CCC[C@H]1C(=O)O[C@H](C(=O)N1C(=O)C=C(OC)[C@@H]1Cc1ccccc1)C(C)C)C(C)C)C(C)C (Hexanoyl-VV[NMeL]PP-X26)",
    "categoryLabel": "N"
  },
  {
    "molecule": "O=C1c2cccc3cccc(c23)C2NCCCN12 (stereo not given)",
    "categoryLabel": "N"
  },
  {
    "molecule": "O=C1C2C=CC(C2)C(c2ccc(O)cc2)N1O (stereo not given)",
    "categoryLabel": "N"
  },
  {
    "molecule": "CCN/C(=N\\Nc1ccc([N+](=O)[O-])cc1)P(=O)(OC(C)C)OC(C)C",
    "categoryLabel": "N"
  },
  {
    "molecule": "Nc1ncnc2c1ncn2CC(O)C(=O)O (stereo not given)",
    "categoryLabel": "N"
  },
  {
    "molecule": "COC(=O)CCCCC/C(=C\\C(=O)C(Cl)(Cl)Cl)OC",
    "categoryLabel": "N"
  },
  {
    "molecule": "Cn1cc(C2NC(=O)c3ccccc3N2)c2ccccc21 (stereo not given)",
    "categoryLabel": "Y"
  },
  {
    "molecule": "C=CCc1ccccc1CC1(OCC)OC(=O)c2ccccc21 (stereo not given)",
    "categoryLabel": "N"
  },
  {
    "molecule": "CN(C)c1nc2oc(-c3ccccc3)c(-c3ccccc3)c2c2nncn12",
    "categoryLabel": "N"
  },
  {
    "molecule": "CN(C)/C=N/c1c2c(nc3ccccc13)CCCC2",
    "categoryLabel": "N"
  },
  {
    "molecule": "COC(=O)C(O)P(=O)(OC)OC (stereo not given)",
    "categoryLabel": "N"
  },
  {
    "molecule": "O=c1c2ncn(C3CCCCO3)c2n(-c2ccccc2)c(=S)n1-c1ccccc1 (stereo not given)",
    "categoryLabel": "N"
  },
  {
    "molecule": "CCN(CC)CCCn1cnc2ncccc2c1=O",
    "categoryLabel": "N"
  },
  {
    "molecule": "O=C1c2ccccc2-c2oc(=O)c3ccccc3c21",
    "categoryLabel": "N"
  },
  {
    "molecule": "COc1ccc2c(c1)-c1nc(=S)n(CCCN(C)C)c3ccc([N+](=O)[O-])c(c13)N2",
    "categoryLabel": "Y"
  },
  {
    "molecule": "CC1CN=C(Nc2ccc(F)cc2F)S1 (stereo not given)",
    "categoryLabel": "N"
  },
  {
    "molecule": "CC(=O)N1C(C(=O)NNc2ccccc2)CSC1c1ccccc1 (stereo not given)",
    "categoryLabel": "N"
  },
  {
    "molecule": "O=C(c1ccccc1)C1CCCCN1C(=O)c1ccccc1 (stereo not given)",
    "categoryLabel": "N"
  },
  {
    "molecule": "CCCCCCC(=O)CC(=O)C(=O)Nc1ccccc1C",
    "categoryLabel": "N"
  },
  {
    "molecule": "O=[N+]([O-])c1cccc(C2N3CCCCC3[C@@H]3c4[nH]c5ccccc5c4CCN23)c1 (stereo not given in full)",
    "categoryLabel": "N"
  }
]
